# tested system: T1, Biotinylated human BSSL (human, UniProt P19835 21-753, Biotinylated on glycosacarides, 30-40 biotin/BSSL)
# T1 construct: hBSSL biotinylated in house; also called b-hBSSL; human BSSL-biotin
# T1 sequence: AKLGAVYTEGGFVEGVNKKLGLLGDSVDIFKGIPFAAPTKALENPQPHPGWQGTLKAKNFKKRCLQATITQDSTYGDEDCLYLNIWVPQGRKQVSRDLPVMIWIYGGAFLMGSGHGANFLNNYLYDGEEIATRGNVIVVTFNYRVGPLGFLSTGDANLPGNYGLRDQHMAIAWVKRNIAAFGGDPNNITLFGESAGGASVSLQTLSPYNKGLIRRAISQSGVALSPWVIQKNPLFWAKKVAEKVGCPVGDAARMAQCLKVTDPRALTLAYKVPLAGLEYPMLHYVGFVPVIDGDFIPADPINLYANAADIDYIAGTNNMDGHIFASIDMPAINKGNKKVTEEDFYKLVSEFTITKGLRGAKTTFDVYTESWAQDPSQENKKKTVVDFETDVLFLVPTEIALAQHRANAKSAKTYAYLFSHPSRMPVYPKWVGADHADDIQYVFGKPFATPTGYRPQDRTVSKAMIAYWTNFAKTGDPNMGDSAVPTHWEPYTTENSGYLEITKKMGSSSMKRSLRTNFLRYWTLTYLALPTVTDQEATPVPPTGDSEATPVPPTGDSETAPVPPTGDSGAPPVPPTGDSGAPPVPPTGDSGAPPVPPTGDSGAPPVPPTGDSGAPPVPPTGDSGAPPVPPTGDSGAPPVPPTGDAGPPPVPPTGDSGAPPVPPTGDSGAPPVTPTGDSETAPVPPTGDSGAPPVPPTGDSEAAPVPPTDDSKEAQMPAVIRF
# assay explanation: flow cytometry displacement assay; 0.5 ug antibody, 1 ug b-hBSSL
percentage reduction of b-hBSSL binding to CD14+ monocytes values, listed per item
Number only, in %; omit the unit.

Solved cases (4 shown):
binder	measured number
S-SL048-14 hIgG4 S228P (antibody, V domains shown, Tested as human IgG4 S228P) VH: QVQLVQSGAEVKKPGASVKVSCKASGYTFTSYNMHWVRQAPGQGLEWMGVINPGDGATSYAQKFKGRVTMTRDTSTSTVYMELSSLRSEDTAVYYCARDYYGSSPLGYWGQGTLVTVSS VL: DIQMTQSPSSLSASVGDRVTITCRASPSISYLNWYQQKPGKAPKLLIYATSRLPSGVPSRFSGSGSGTDFTLTISSLQPEDFATYYCQQRSSSPTFGQGTKLEIK	11
S-SL048-103 hIgG4 S228P (antibody, V domains shown, Tested as human IgG4 S228P) VH: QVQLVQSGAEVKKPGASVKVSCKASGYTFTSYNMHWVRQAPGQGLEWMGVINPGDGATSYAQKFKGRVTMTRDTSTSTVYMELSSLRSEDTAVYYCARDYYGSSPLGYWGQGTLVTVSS VL: DIQMTQSPSSLSASVGDRVTITCRASSSISYMHWYQQKPGKAPKLLIYATSSLASGVPSRFSGSGSGTDFTLTISSLQPEDFATYYCHQRSSSPTFGQGTKLEIK	12
S-SL048-11 hIgG4 S228P (antibody, V domains shown, also called clone 11; mAb11) VH: QVQLVQSGAEVKKPGASVKVSCKASGYTFTSYNMHWVRQAPGQGLEWMGVIYPGDGATSYAQKFKGRVTMTRDTSTSTVYMELSSLRSEDTAVYYCARDYYGSSPLGYWGQGTLVTVSS VL: DIQMTQSPSSLSASVGDRVTITCSASPSISYMNWYQQKPGKAPKLLIYATSSLASGVPSRFSGSGSGTDFTLTISSLQPEDFATYYCHQRSSYPTFGQGTKLEIKR	1
S-SL048-40 hIgG4 S228P (antibody, V domains shown, Tested as human IgG4 S228P) VH: QVQLVQSGAEVKKPGASVKVSCKASGYTFTSYNMHWVRQAPGQGLEWIGVINPSDGATSYAQKFQGRVTMTRDTSTSTVYMELSSLRSEDTAVYYCARDYYGSSPLGYWGQGTLVTVSS VL: DIQMTQSPSSLSASVGDRVTITCRASSSISYLNWYQQKPGKAPKLLIYAASRLPSGVPSRFSGSGSGTDFTLTISSLQPEDFATYYCQQRSSSPTFGQGTKLEIK	20

Which percentage reduction of b-hBSSL binding to CD14+ monocytes is listed for S-SL048-48 hIgG4 S228P (antibody, V domains shown, Tested as human IgG4 S228P) VH: QVQLVQSGAEVKKPGASVKVSCKASGYTFTSYNMHWVRQAPGQGLEWIGVINPGDGATSYAQKFQGRVTMTRDTSTSTVYMELSSLRSEDTAVYYCARDYYGSSPLGYWGQGTLVTVSS VL: DIQMTQSPSSLSASVGDRVTITCRASPSISYMNWYQQKPGKAPKLLIYATSRLQSGVPSRFSGSGSGTDFTLTISSLQPEDFATYYCHQRSSSPTFGQGTKLEIK ?
28
